Biological target: Androgen receptor (Homo sapiens, UniProt P10275)
Sequence (P10275 whole entry): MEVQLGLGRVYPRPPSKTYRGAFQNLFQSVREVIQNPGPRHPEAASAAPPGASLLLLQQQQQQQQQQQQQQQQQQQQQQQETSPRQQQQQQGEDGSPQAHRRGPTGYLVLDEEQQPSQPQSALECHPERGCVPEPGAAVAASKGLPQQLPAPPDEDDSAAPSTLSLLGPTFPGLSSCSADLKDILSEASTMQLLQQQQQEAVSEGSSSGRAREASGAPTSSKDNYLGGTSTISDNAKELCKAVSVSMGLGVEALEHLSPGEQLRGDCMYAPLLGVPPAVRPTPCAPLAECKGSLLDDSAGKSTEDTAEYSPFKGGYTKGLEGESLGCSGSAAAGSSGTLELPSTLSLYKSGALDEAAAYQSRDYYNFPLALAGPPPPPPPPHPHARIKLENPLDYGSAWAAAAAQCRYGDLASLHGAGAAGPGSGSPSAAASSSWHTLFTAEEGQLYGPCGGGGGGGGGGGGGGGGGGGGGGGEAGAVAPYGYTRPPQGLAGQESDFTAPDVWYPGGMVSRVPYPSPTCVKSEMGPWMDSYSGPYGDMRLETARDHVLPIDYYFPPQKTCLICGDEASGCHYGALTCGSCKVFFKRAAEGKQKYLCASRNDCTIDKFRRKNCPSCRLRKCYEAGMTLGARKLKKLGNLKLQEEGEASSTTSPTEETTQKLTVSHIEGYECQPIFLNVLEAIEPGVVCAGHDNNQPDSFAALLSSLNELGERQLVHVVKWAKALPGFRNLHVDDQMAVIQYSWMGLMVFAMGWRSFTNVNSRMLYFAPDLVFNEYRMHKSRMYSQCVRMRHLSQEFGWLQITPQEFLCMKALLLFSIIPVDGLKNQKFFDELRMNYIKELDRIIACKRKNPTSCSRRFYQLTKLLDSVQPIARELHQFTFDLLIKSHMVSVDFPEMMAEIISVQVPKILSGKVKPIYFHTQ
Assay: Antagonist activity at human AR in MDA-MB453-MMTV-luci cells by functional assay
Assay type: cell-based
Threshold-based label: IC50 under 10 nM gives satisfied, IC50 not under 10 nM gives not satisfied.

Problem: Lab note: IC50 threshold 10 nM. Does this compound come in strictly under it? `Cc1ccccc1-c1ccc(C#N)c(C(F)(F)F)c1`
Solution: not satisfied

Problem: Lab note: IC50 threshold 10 nM. Does this compound come in strictly under it? `N#Cc1ccc(-c2ccccc2O)cc1C(F)(F)F`
Solution: satisfied

Problem: Lab note: IC50 threshold 10 nM. Does this compound come in strictly under it? `COc1ccc(-c2ccc(C#N)c(C(F)(F)F)c2)cc1`
Solution: satisfied

Problem: Lab note: IC50 threshold 10 nM. Does this compound come in strictly under it? `N#Cc1ccc(-c2ccc(O)cc2)cc1C(F)(F)F`
Solution: not satisfied

Problem: Lab note: IC50 threshold 10 nM. Does this compound come in strictly under it? `COc1ccccc1-c1ccc(C#N)c(C(F)(F)F)c1`
Solution: not satisfied

Problem: Lab note: IC50 threshold 10 nM. Does this compound come in strictly under it? `COc1cccc(-c2ccc(C#N)c(C(F)(F)F)c2)c1`
Solution: not satisfied

Problem: Lab note: IC50 threshold 10 nM. Does this compound come in strictly under it? `COc1cccc(OC)c1-c1ccc(C#N)c(C(F)(F)F)c1`
Solution: not satisfied

Problem: Lab note: IC50 threshold 10 nM. Does this compound come in strictly under it? `Cc1ccc(-c2ccc(C#N)c(C(F)(F)F)c2)cc1`
Solution: not satisfied
